# TEST SUMMARY: in vivo
# Set-up: species or system mice
# CONDITION DETAILS: male, NOD.Cg-Rag1tm1Mom Il2rgtm1Wjl/SzJ (NRG), mouse, iv, total radioactivity, Ratio Tumor-to-Bone
Where a SMILES comes first, the peptide text is derived from it. Bridges are numbered along the chain shown (N, C = ends). Side-chain parts run from the residue outwards. [ ]: non-standard residue; d: D form. The star is where a group is joined. X4 = O=C(O)CN1CCN(CC(=O)O)CCN(CC(=O)N[C@@H](CS(=O)(=O)O)C(=O)NCCCC[C@H](NC(=O)CNC(=O)CCCc2ccc(Cl)cc2)C(=O)*)CCN(CC(=O)O)CC1; X3 = O=C(O)CN1CCN(CC(=O)O)CCN(CC(=O)N[C@@H](CS(=O)(=O)O)C(=O)N[C@@H](CCCCNC(=O)CCCc2ccc(Br)cc2)C(=O)*)CCN(CC(=O)O)CC1; X7 = COc1ccc(CCCC(=O)NCCCC[C@H](NC(=O)CN2CCN(CC(=O)O)CCN(CC(=O)O)CCN(CC(=O)O)CC2)C(=O)*)cc1; DOTA = O=C(O)CN1CCN(CC(=O)O)CCN(CC(=O)*)CCN(CC(=O)O)CC1; NMeLys(iPr) = CN[C@@H](CCCCNC(C)C)C(=O)O; 2Nal = N[C@@H](Cc1ccc2ccccc2c1)C(=O)O; Lys(iPr) = CC(C)NCCCC[C@H](N)C(=O)O; Cya = N[C@@H](CS(=O)(=O)O)C(=O)O
For each entry below, report its tissue to tissue ratio at 1 h value.
Just the number, please, no unit attached.

Prompt: Identify the reported tissue to tissue ratio at 1 h for the following entry. CC(C)NCCCC[C@H](NC(=O)[C@H]1CCC(=O)N[C@@H](CCCCNC(=O)[C@H](CCCCNC(=O)CCCc2ccc(Br)cc2)NC(=O)[C@H](CS(=O)(=O)O)NC(=O)CN2CCN(CC(=O)O)CCN(CC(=O)O)CCN(CC(=O)O)CC2)C(=O)N[C@@H](Cc2ccc(O)cc2)C(=O)N[C@@H](CCCCNC(C)C)C(=O)N[C@H](CCCNC(=N)N)C(=O)N[C@@H](Cc2ccc3ccccc3c2)C(=O)N[C@H](C)C(=O)N1)C(N)=O [[^177Lu]Lu-BL34L20, metal not drawn] (K(X3)Y[Lys(iPr)][dR][2Nal][dA][dE][Lys(iPr)]-NH2; lactam N-7)
Response: 3.63

Prompt: Identify the reported tissue to tissue ratio at 1 h for the following entry. COc1ccc(CCCC(=O)NCCCC[C@H](NC(=O)CN2CCN(CC(=O)O)CCN(CC(=O)O)CCN(CC(=O)O)CC2)C(=O)N[C@@H](CS(=O)(=O)O)C(=O)NCCCC[C@@H]2NC(=O)CC[C@H](C(=O)N[C@@H](CCCCNC(C)C)C(N)=O)NC(=O)[C@@H](C)NC(=O)[C@H](Cc3ccc4ccccc4c3)NC(=O)[C@@H](CCCNC(=N)N)NC(=O)[C@H](CCCCNC(C)C)NC(=O)[C@H](Cc3ccc(O)cc3)NC2=O)cc1 [[68Ga]Ga-BL34L6, metal not drawn] (K([Cya-X7])Y[Lys(iPr)][dR][2Nal][dA][dE][Lys(iPr)]-NH2; lactam N-7)
Response: 66.5

Prompt: Identify the reported tissue to tissue ratio at 1 h for the following entry. CC(C)NCCCC[C@H](NC(=O)[C@H]1CCC(=O)N[C@@H](CCCCNC(=O)[C@H](CCCCNC(=O)[C@H](CS(=O)(=O)O)NC(=O)CN2CCN(CC(=O)O)CCN(CC(=O)O)CCN(CC(=O)O)CC2)NC(=O)CNC(=O)CCCc2ccc(Cl)cc2)C(=O)N[C@@H](Cc2ccc(O)cc2)C(=O)N[C@@H](CCCCNC(C)C)C(=O)N[C@H](CCCNC(=N)N)C(=O)N[C@@H](Cc2ccc3ccccc3c2)C(=O)N[C@H](C)C(=O)N1)C(N)=O [[68Ga]Ga-BL34T1, metal not drawn] (K(X4)Y[Lys(iPr)][dR][2Nal][dA][dE][Lys(iPr)]-NH2; lactam N-7)
Response: 12.7

Prompt: Identify the reported tissue to tissue ratio at 1 h for the following entry. CC(C)NCCCC[C@H](NC(=O)[C@H]1CCC(=O)N[C@@H](CCCCNC(=O)[C@H](CS(=O)(=O)O)NC(=O)CN2CCN(CC(=O)O)CCN(CC(=O)O)CCN(CC(=O)O)CC2)C(=O)N[C@@H](Cc2ccc(O)cc2)C(=O)N(C)[C@@H](CCCCNC(C)C)C(=O)N[C@H](CCCNC(=N)N)C(=O)N[C@@H](Cc2ccc3ccccc3c2)C(=O)N[C@H](C)C(=O)N1)C(N)=O [[^68Ga]Ga-BL34N1, metal not drawn] (K([Cya-DOTA])Y[NMeLys(iPr)][dR][2Nal][dA][dE][Lys(iPr)]-NH2; lactam N-7)
Response: 92.2
